Test system: L. bulgaricus DPC6901
Assay: Well-diffusion assay of naturally produced and synthetic peptides
Assay type: cell-based, Lactobacillus delbrueckii subsp. bulgaricus
Settings: synthetic peptides resuspended in milli Q water at 1 mg/ml; well-diffusion; Fig. 4a
Observation Type: antimicrobial activity of synthetic peptides

MKNFNTLSFETLANIVGGRNNWAANIGGVGGATVAGWALGNAVCGPACGFVGAHYVPIAWAGVTAATGGFGKIRK [GamA, class IIb bacteriocin peptide of L. gasseri LM19 cluster 3, purified from culture and synthesised] ... highest activity
MIEKVSKNELSRIYGGNNVNWGSVAGSCGKGAVMGIYFGNPILGCANGAATSLVLQTASGIYKNYQKKR [Bact_2, bacteriocin peptide of L. gasseri LM19 cluster 1, identical to gassericin S peptide GasX] ... highest activity

The reported measurements were obtained from paper PMC7162838.
